B1: CLCN6 (parent)
chain: FQSISLRKIQFNFPYFRSDRDKRD

Variants of: B1
Test: protein stability index of a GFP-peptide fusion (GPS, HEK-293T) (PSI 1-6); higher = more stable;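 further: lentivirally expressed fusions sorted by FACS into six bins by GFP to DsRed ratio, PSI derived from sequencing read proportions per bin multiplied by bin number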
Conditions: c terminus: a fixed tail appended
property: protein stability index

Observe how each entry below is paired with its result.
[
  {
    "change": "S3R",
    "result": 1.38
  },
  {
    "change": "Y15N",
    "result": 2.78
  },
  {
    "change": "R23H",
    "result": 1.99
  },
  {
    "change": "S3H",
    "result": 1.46
  },
  {
    "change": "K8Y",
    "result": 2.09
  }
]

As a next step, examine the variant that follows.
Sample S3G — what was its protein stability index?
1.89
